Biological target: T1, human CCR8 (human, UniProt P51685 1-355)
T1 construct: whole, on cells; also called hCCR8
T1 sequence (P51685 whole entry): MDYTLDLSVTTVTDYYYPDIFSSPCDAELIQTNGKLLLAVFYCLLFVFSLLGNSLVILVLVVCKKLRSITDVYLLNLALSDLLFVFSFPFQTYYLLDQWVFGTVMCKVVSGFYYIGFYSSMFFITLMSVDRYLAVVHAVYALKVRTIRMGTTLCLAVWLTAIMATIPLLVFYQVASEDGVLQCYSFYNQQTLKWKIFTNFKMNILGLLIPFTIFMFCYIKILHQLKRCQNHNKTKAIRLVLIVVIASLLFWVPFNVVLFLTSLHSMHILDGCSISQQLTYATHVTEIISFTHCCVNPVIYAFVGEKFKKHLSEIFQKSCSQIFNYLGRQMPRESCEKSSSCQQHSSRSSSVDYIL
Test: FACS, competition with AF647-human CCL1 on HEK293-human CCR8 cells
test_readout: IC50 (nM)
Record the value in nM, omitting the unit from your answer.

// IC50 lookup, binder = 234G9C12 (antibody, V domains shown, purified murine hybridoma antibody) VH: DVQLQESGPGLVKPSQSLSLTCSVTGYSITSGYYWNWIRQFPGNKLEWMGYTSYDGSNNYNPSFKNRISITRDISKNQFFLKLNSVTTEDTATYYCARQIGLRRGAMDHWGQGTSVTVSS VL: DIQMTQSSSYLSVSLGGRVTITCKASDHINNWLAWYQQKPGNAPRLLISGSTSLRAGVASRFSGSGSGKDYTLTITSLQTEDVATYYCQQYWGIPFTFGGGTKLEIK , result: 0.812

The recorded IC50 for entry 204A2G12 (antibody, V domains shown, purified murine hybridoma antibody) VH: DVQLQESGPGLVKPSQSLSLTCSVTGYSITSGYYWNWIRQFPGNKLEWMGYISYDGTNNYNPSLKNRISITRDTSKNQFFLKLTSVTTEDTATYYCARQVGLRRAWFAYWGQGTLVTVSA VL: DIQMTQSSSFLSVSLGGRVTITCKASDHINYWLAWYQQKPGNAPRLLISGATSLETGVPSRFSGSGSGKDYTLTITSLQNEDVATYYCHQYWSTPTFGSGTKLEIK equals 1.64

Measured IC50, 153D4G2 (antibody, V domains shown, purified murine hybridoma antibody) VH: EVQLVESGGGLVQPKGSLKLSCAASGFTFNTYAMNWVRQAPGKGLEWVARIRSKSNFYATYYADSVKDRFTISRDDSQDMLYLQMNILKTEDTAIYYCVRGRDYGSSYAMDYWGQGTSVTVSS VL: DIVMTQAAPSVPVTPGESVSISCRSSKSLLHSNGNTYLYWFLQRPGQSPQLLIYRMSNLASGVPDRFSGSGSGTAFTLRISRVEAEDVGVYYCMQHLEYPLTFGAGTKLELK : 0.836

For this binder ( 348E2D11 (antibody, V domains shown, purified murine hybridoma antibody) VH: QVQLVETGGGLVRPGNSLKLSCVTSGFSFSNYRMHWLRQPPGKRLEWIAVITVKSDNYGANYAESVKGRFTISRDDSKSSVYLQMNRLREEDTATYYCSSLGRVAYWGQGTLVTVSA VL: DIVMTQSQKFMFTSVGDRVSVTCKASQNVDTNVVWYQQKPGQSPKALIYSASSRYSGVPDRFTGSGSGTDFTLTISNVQSEDLAEYFCQQHNSFPLTFGAGTKLELI ), measured IC50 is 0.368

Entry under test: 149F2C10 (antibody, V domains shown, purified murine hybridoma antibody) VH: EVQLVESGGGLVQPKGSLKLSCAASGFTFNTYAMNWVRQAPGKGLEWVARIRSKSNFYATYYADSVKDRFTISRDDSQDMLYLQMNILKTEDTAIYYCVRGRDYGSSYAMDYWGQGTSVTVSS VL: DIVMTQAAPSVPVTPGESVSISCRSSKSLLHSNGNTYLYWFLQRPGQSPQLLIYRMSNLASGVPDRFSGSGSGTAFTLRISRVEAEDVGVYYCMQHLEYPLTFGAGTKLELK . Its IC50 was 0.733

The measurements presented in this section are drawn from patent US20250034266A1.
